# System: PC-12
# assay-method-text: Cytotoxicity against rat PC12 cells assessed as cell viability at 1 mM after 48 hrs by neutral red assay
# Assay type: cell-based
# condition-parameters: pc-12, 48 h, 1000 µM
parameter: Activity

The following compounds have reported results that may help.
CCNC(Cc1ccc(SC)cc1)Cc1ccc(SC)cc1 : Toxic
CCC(Cc1ccc(SC)cc1)NC=O (stereo unspecified) : Toxic
CSc1ccc(CC(N)Cc2ccc(SC)cc2)cc1 : Toxic
CSc1ccc(CC(Cc2ccc(SC)cc2)NC(C)=O)cc1 : Non-toxic
CSc1ccc(C/C(C)=N/O)cc1 : Toxic

Problem: Fill in the recorded Activity for this compound, with PC-12 as test system: CSc1ccc(CC(C)NC=O)cc1 (stereo unspecified)
Solution: Non-toxic
